- Test system: EKVX NSCLC
- testMethodNotes: NCI tumour cell line growth inhibition, 48 h
Kindly state TGI for each of the entries shown.

Example cases with answers are listed next.
[[record]]
molecule = "COc1ccc2[nH]c3c(C)c4ncccc4c(C)c3c2c1"
propertymeasured = "TGI"
result = "> 10 µM"

[[record]]
molecule = "Brc1ccc(C2CC3(c4ccccc4)ON=C(c4ccccc4)N3c3ccccc3S2)cc1 (stereo not given)"
propertymeasured = "TGI"
result = "> 100 µM"

[[record]]
molecule = "CC1(C)/C(=N\\Nc2ccc([N+](=O)[O-])cc2[N+](=O)[O-])C2CCC1C2 (stereo not given)"
propertymeasured = "TGI"
result = "> 100 µM"

[[record]]
molecule = "CC(C)(C)C1CCC(=O)C(C(O)CC2CC(=O)N(c3ccccc3)C(=O)C2)C1 (stereo not given)"
propertymeasured = "TGI"
result = "> 100 µM"

[[record]]
molecule = "N#CC(C(=O)O)C(c1c(Cl)cccc1Cl)C(C#N)C(=O)O (stereo not given)"
propertymeasured = "TGI"
result = "> 100 µM"

[[record]]
molecule = "CNC(=O)OCC1=C(COC(=O)NC)C(C)N(c2ccccc2)C1 (stereo not given)"
propertymeasured = "TGI"
result = "> 100 µM"


Batch request: TGI for each of the following molecules.
1. NS(=O)(=O)c1nnc(NC(=O)/C=C/C(=O)O)s1
2. C#CCN(Cc1nc2cc(C(F)(F)F)ccc2nc1-c1ccccc1)c1ccc(F)cc1
3. O=C(NNC(=O)c1c(Cl)c(Cl)c(Cl)c(Cl)c1-c1nc2ccccc2[nH]1)c1ccc(Cl)cc1
4. CCNC1=C(NC(=O)CCl)C(=O)c2ccccc2C1=O

> 100 µM
66.2 µM
> 100 µM
29.6 µM

* * *

Kindly state GI50 for each of the entries shown.
- System: SF-268 CNS
- testMethodNotes: NCI tumour cell line growth inhibition, 48 h

Example cases with answers are listed next.
[[record]]
smilesentry = "Cc1nc2ccccc2c(/C=C/c2ccccc2)c1C(=O)/C=C/c1ccccc1"
propertymeasured = "GI50"
result = "2140 nM"

[[record]]
smilesentry = "COC(=O)CCCNC(=O)C(=O)c1c(O)c(O)c(C(C)C)c2cc(C)c(-c3c(C)cc4c(C(C)C)c(O)c(O)c(C(=O)C(=O)NCCCC(=O)OC)c4c3O)c(O)c12"
propertymeasured = "GI50"
result = "435 nM"

[[record]]
smilesentry = "CN1CCN(c2ccc(-c3cccc(CN4CCOCC4)c3)cc2NC(=O)c2c[nH]c(=O)cc2C(F)(F)F)CC1"
propertymeasured = "GI50"
result = "62500 nM"


Batch request: GI50 for each of the following compounds.
1. CN1CCN(Cc2ccc(NC(=O)c3cccc(C#Cc4c(N)ncc5ccc(F)cc45)c3)cc2C(F)(F)F)CC1
2. CCCc1n(Cc2ccc3ccccc3n2)cc[n+]1Cc1ccc2ccccc2c1

["719 nM", "1010 nM"]

* * *

Kindly state TGI for each of the entries shown.
- System: MALME-3M melanoma
- testMethodNotes: NCI tumour cell line growth inhibition, 48 h
Give bare numbers, in µM.

Batch request: TGI for each of the following compounds.
1. CCN(CC)CCOc1ccc(Cc2ccccc2)cc1
2. c1ccc(N2N=C3N(c4ccccc4)C2N3c2ccccc2)cc1

1: 43.1; 2: 38.2

Batch request: TGI for each of the following compounds.
1. CC(C)c1cc(C(=O)[O-])c(O)c(C(C)C)c1.CC(C)c1cc(C(=O)[O-])c(O)c(C(C)C)c1.CC(C)c1cc(C(=O)[O-])c(O)c(C(C)C)c1.CC(C)c1cc(C(=O)[O-])c(O)c(C(C)C)c1.CC(C)c1cc(C(=O)[O-])c(O)c(C(C)C)c1.CC(C)c1cc(C(=O)[O-])c(O)c(C(C)C)c1.[Cu+2].[Mn+2].[Mn+2]
2. CC(C)C[C@H](NC(=O)CCc1cccc2ccccc12)B(O)O

28.7
5.23

Batch request: TGI for each of the following compounds.
1. C=CC(C)(C)n1cc(C2=C(O)C(=O)C(c3c(CC=C(C)C)[nH]c4ccccc34)=C(O)C2=O)c2ccccc21
2. COc1ccc(S(=O)(=O)Nc2ccc(-c3csc(N4C(=O)/C(=C/c5cccs5)N=C4c4ccccc4)n3)cc2)cc1Cl
3. Cc1nc2ccccc2c(/C=C/c2ccccc2)c1C(=O)/C=C/c1ccccc1
4. Fc1cc2nc3n(c2cc1F)C(c1c(Cl)cccc1Cl)SC3 (centres undefined)
5. CCCCCCCCCC[N+](C)(C)C

3.9
90.5
3.24
33.8
8.96

Batch request: TGI for each of the following compounds.
1. Cc1nc(-n2nc(-c3ccccc3)cc2-c2ccccc2)sc1C(=O)/C=C/c1ccc(Cl)cc1
2. C=C1C(=O)O[C@H]2[C@H]1CC/C(Cn1cc(-c3ccsc3)nn1)=C\CC[C@@]1(C)O[C@@H]21

1: 52.5; 2: 3.34
